Cited source for all entries: the supplement of paper PMC4862054

# Tested on: HDQ-P1
# protocolConditions: 72 h
metricName: EC50, CellTiter-Glo
Answer with the value and then the unit.

| givenSmiles | EC50, CellTiter-Glo |
| --- | --- |
| CC[C@]1(O)C[C@@H]2CN(CCc3c([nH]c4ccccc34)[C@@](C(=O)OC)(c3cc4c(cc3OC)N(C)[C@H]3[C@@](O)(C(=O)OC)[C@H](OC(C)=O)[C@]5(CC)C=CCN6CC[C@]43[C@@H]65)C2)C1 | 5.35 nM |
| COc1cccc2c1C(=O)c1c(O)c3c(c(O)c1C2=O)C[C@@](O)(C(=O)CO)C[C@@H]3O[C@H]1C[C@H](N)[C@H](O)[C@H](C)O1 | 465 nM |
| COc1cc(Nc2ncc3c(n2)-c2ccc(Cl)cc2C(c2c(F)cccc2OC)=NC3)ccc1C(=O)O | 8410 nM |

Test system HDQ-P1; read-out EC50, CellTiter-Glo; what value for CN1CC[C@H](c2c(O)cc(O)c3c(=O)cc(-c4ccccc4Cl)oc23)[C@H](O)C1 ?
183 nM

* * *

# System: MDA-MB-453
# experimentalDetails: normalised response (% of control), CellTiter-Glo; higher = more viable cells (100 = DMSO, 0 = benzethonium chloride kill control)
# protocolConditions: incubation time: 72 h
Please respond with reported normalised response for every item in the list.
Give bare numbers, in %.

Here is how some molecules turned out for normalised response.
| molecule | normalised response [%] |
| --- | --- |
| N#CC[C@H](C1CCCC1)n1cc(-c2ncnc3[nH]ccc23)cn1 [Ruxolitinib] (10000 nM) | 87.6 |
| Nc1ccn([C@@H]2O[C@H](CO)[C@@H](O)[C@@H]2O)c(=O)n1 [Cytarabine] (10000 nM) | 76.4 |
| O=C(c1ccc(C(=O)N2CCC(N3CCCC3)CC2)c(Nc2ccccc2)c1)N1CCC(N2CCCC2)CC1 [UNC1215] (30000 nM) | 99.8 |

Okay, next one:
// query normalised response value for entry Cc1ccc(F)c(NC(=O)Nc2ccc(-c3cccc4[nH]nc(N)c34)cc2)c1 [Linifanib] (1000 nM)
110

* * *

Record form. Attribute: normalised viability. Fill in for each entry.
# System: MDA-MB-436
# experimentalDetails: normalised viability (% of control), CellTiter-Blue; higher = more viable cells (about 100 = DMSO control)
# protocolConditions: 10 nM; incubation time: 72 h
One number for each entry, in %.

Sample records with normalised viability:
| compound | reportedMeasurement |
| --- | --- |
| C=CCNC1=C2C[C@@H](C)C[C@H](OC)[C@H](O)[C@@H](C)/C=C(\C)[C@H](OC(N)=O)[C@@H](OC)/C=C\C=C(/C)C(=O)NC(=CC1=O)C2=O [Tanespimycin] | 88.8 |
| C=CC[C@@H]1/C=C(\C)C[C@H](C)C[C@H](OC)[C@H]2O[C@@](O)(C(=O)C(=O)N3CCCC[C@H]3C(=O)O[C@H](/C(C)=C/[C@@H]3CC[C@@H](O)[C@H](OC)C3)[C@H](C)[C@@H](O)CC1=O)[C@H](C)C[C@@H]2OC [Tacrolimus] | 116 |
| OC[C@H]1O[C@@H](n2cnc3c2N=CNC[C@H]3O)C[C@@H]1O [Pentostatin] | 93.4 |
| CN1CC[C@H](c2c(O)cc(O)c3c(=O)cc(-c4ccccc4Cl)oc23)[C@H](O)C1 [Alvocidib] | 91 |

Now turn to the next compound.
Which normalised viability value belongs to COc1cccc2cc(-c3nc([C@H]4CC[C@H](C(=O)O)CC4)n4ncnc(N)c34)[nH]c12 [OSI-027] ?
76.6
